conditions: Crystal; visual observation
For each of the compounds below, state its Normal melting temperature.
Output spec: scalar in °C, unitless text.

Query block: Consider the compound C[N+](C)(C)CCO.O=S(=O)([N-]S(=O)(=O)C(F)(F)F)C(F)(F)F [choline bis(trifluoromethylsulfonyl)imide] and give its measured Normal melting temperature.
Result block: 32.50

Query block: Consider the compound C[n+]1ccn(CCO)c1.[Cl-] [1-(2-hydroxyethyl)-3-methyl-1H-imidazolium chloride] and give its measured Normal melting temperature.
Result block: 85.73

Query block: Consider the compound CCCCCCCCC(C[N+](C)(C)Cc1ccccc1)C(C)O.[Cl-] (centres undefined) [benzyldimethyl-2-(1-hydroxyethyl)decylammonium chloride] and give its measured Normal melting temperature.
Result block: 78.27

Query block: Consider the compound CC(=O)[O-].C[N+](C)(C)CCO [choline acetate] and give its measured Normal melting temperature.
Result block: 89.47
